Where do the numbers come from? From patent US8222218B2.

# protocolDetails: Acute toxicity, minimal motor impairment (rotorod), mice
# Assay type: in vivo
# details: mice, 100 mg/kg, 0.5 h, rotorod

- compound: "CCOC(=O)C1[C@@H]2[C@@H](O)[C@@H]3O[C@H](c4ccc(C(C)C)cc4)OC[C@H]3O[C@H]12 (stereo partly drawn) [Compound 20b]"
  TOX 100 0.5 h (animals toxic/tested): "0/8"
- compound: "CCOC(=O)C1[C@@H]2[C@@H](OS(N)(=O)=O)[C@@H]3OC(C)(C)OC[C@H]3O[C@H]12 (stereo partly drawn)"
  TOX 100 0.5 h (animals toxic/tested): "1/8"
- compound: "CCOC(=O)C1[C@@H]2[C@@H](O)[C@@H]3OC(C)(C)OC[C@H]3O[C@H]12 (stereo partly drawn)"
  TOX 100 0.5 h (animals toxic/tested): "0/8"
- compound: "CCOC(=O)C1[C@H]2O[C@@H]3COC(C)(C)O[C@H]3C(=NO)[C@@H]12 (stereo partly drawn)"
  TOX 100 0.5 h (animals toxic/tested): "1/8"
- compound: "CCOC(=O)C1[C@@H]2[C@@H](O)[C@@H]3O[C@H](c4ccccc4)OC[C@H]3O[C@H]12 (stereo partly drawn) [Compound 20a]"
  TOX 100 0.5 h (animals toxic/tested): "0/8"
- compound: "CCOC(=O)C1[C@@H]2[C@@H](O)[C@@H]3O[C@H](c4ccc(F)cc4F)OC[C@H]3O[C@H]12 (stereo partly drawn) [Compound 20d]"
  TOX 100 0.5 h (animals toxic/tested): "1/8"
- compound: "CCOC(=O)C1[C@@H]2[C@@H](OS(=O)(=O)N(C)C)[C@@H]3OC(C)(C)OC[C@H]3O[C@H]12 (stereo partly drawn)"
  TOX 100 0.5 h (animals toxic/tested): "0/8"
- compound: "COC(=O)[C@H]1C2O[C@@H]3CO[Si](C(C)(C)C)(C(C)(C)C)O[C@@H]3[C@H](O)[C@@H]21 (stereo partly drawn) [Compound 14b]"
  TOX 100 0.5 h (animals toxic/tested): "2/8"
- compound: "CCOC(=O)C1[C@@H]2[C@@H](O)[C@@H]3O[C@H](c4ccc(C(C)(C)C)cc4)OC[C@H]3O[C@H]12 (stereo partly drawn) [Compound 20c]"
  TOX 100 0.5 h (animals toxic/tested): "0/8"
- compound: "CCOC(=O)C1[C@@H]2[C@@H](OS(=O)(=O)N(C)C)[C@@H]3O[C@H](c4ccc(OC)cc4)OC[C@H]3O[C@H]12 (stereo partly drawn) [Compound 17a]"
  TOX 100 0.5 h (animals toxic/tested): "0/8"
- compound: "CCOC(=O)C1[C@@H]2[C@@H](O)[C@@H]3O[C@H](c4ccc(OC)cc4)OC[C@H]3O[C@H]12 (stereo partly drawn)"
  TOX 100 0.5 h (animals toxic/tested): "2/8"
- compound: "CCOC(=O)C1[C@@H]2[C@@H](O)[C@@H]3O[C@H](c4cccc(OC)c4)OC[C@H]3O[C@H]12 (stereo partly drawn) [Compound 20e]"
  TOX 100 0.5 h (animals toxic/tested): "0/8"
- compound: "CCOC(=O)[C@@H]1[C@H]2O[C@@H]3COC(C)(C)O[C@H]3[C@H](OC)[C@H]21"
  TOX 100 0.5 h (animals toxic/tested): "0/8"
- compound: "COC(=O)C1[C@@H]2[C@@H](O)[C@@H]3OC(C)(C)OC[C@H]3O[C@H]12 (stereo partly drawn)"
  TOX 100 0.5 h (animals toxic/tested): "0/8"
- compound: "CCOC(=O)[C@@H]1[C@H]2O[C@@H]3CO[Si](C(C)(C)C)(C(C)(C)C)O[C@H]3/C(=N/O)[C@H]21"
  TOX 100 0.5 h (animals toxic/tested): "0/8"
- compound: "CCOC(=O)C1[C@@H]2[C@@H](OC)[C@@H]3O[C@H](c4ccc(OC)cc4)OC[C@H]3O[C@H]12 (stereo partly drawn)"
  TOX 100 0.5 h (animals toxic/tested): "0/8"
- compound: "CCOC(=O)[C@@H]1[C@H]2O[C@@H]3CO[Si](C(C)(C)C)(C(C)(C)C)O[C@H]3[C@H](OS(=O)(=O)N(C)C)[C@H]21"
  TOX 100 0.5 h (animals toxic/tested): "0/8"
- compound: "CCOC(=O)C1[C@@H]2[C@@H](OS(N)(=O)=O)[C@@H]3O[C@H](c4ccc(OC)cc4)OC[C@H]3O[C@H]12 (stereo partly drawn) [Compound 17b]"
  TOX 100 0.5 h (animals toxic/tested): "0/8"
